Attribute: LC50
tested on: Diaphorina citri; assay: Insecticidal activity against Diaphorina citri infected with Candidatus Liberibacter asiaticus assessed as mortality after 48 hr; type: functional

| Compound | System | LC50 [mgAi/L] |
| --- | --- | --- |
| CCO[C@@H]1[C@@H](OC)[C@H](C)O[C@@H](O[C@@H]2C[C@H]3CC[C@@H]4[C@@H](C=C5C(=O)[C@H](C)[C@@H](O[C@H]6CC[C@H](N(C)C)[C@@H](C)O6)CCC[C@H](CC)OC(=O)C[C@H]54)[C@@H]3C2)[C@@H]1OC.CCO[C@@H]1[C@@H](OC)[C@H](C)O[C@@H](O[C@H]2C[C@H]3[C@@H]4C=C5C(=O)[C@H](C)[C@@H](O[C@H]6CC[C@H](N(C)C)[C@@H](C)O6)CCC[C@H](CC)OC(=O)C[C@H]5[C@@H]4C=C(C)[C@@H]3C2)[C@@H]1OC | Diaphorina citri | 0.2 |
| CC1(C)C(C(=O)OC(C#N)c2cccc(Oc3ccccc3)c2)C1(C)C (centres undefined) | Diaphorina citri | 0.05 |
| O=[N+]([O-])/N=C1\NCCN1Cc1ccc(Cl)nc1 | Diaphorina citri | 0.15 |
| CCOP(=S)(OCC)Oc1nc(Cl)c(Cl)cc1Cl | Diaphorina citri | 0.28 |
